Tested on: SNB-19 CNS
Test: NCI tumour cell line growth inhibition, 48 h; in the data active = GI50 below about 0.43 µM; inactive = the rest
Thanks in advance; please answer with one of these: 1.0 = active, 0.0 = inactive

Some entries whose results are on file:
[
  {
    "compound": "COc1ccc(/C=C/C(=O)C(=O)/C=C/c2ccc(OC)c(OC)c2)cc1OC",
    "labelValue": 0.0
  },
  {
    "compound": "CC[C@@]1(O)C(=O)OCc2c1cc1n(c2=O)Cc2cc3cc(O)ccc3nc2-1",
    "labelValue": 1.0
  },
  {
    "compound": "CCCCCCCCCCCCCCCC(=O)OCC1OC(OCCCC)[C@H](O[C@@H]2OC(C)C(OC(=O)CCC)C(O)C2O)C(O)C1O (stereo not given in full)",
    "labelValue": 0.0
  }
]

### Prompt // outcome(item) with item = "CCN(CC)CCOc1ccc(/C(=C(\C)Cc2ccc(OC)cc2)c2ccc(O)cc2)cc1"
### Response 0.0

### Prompt Can you look up the reported call for "N#Cc1ncc(-c2ccc(C(F)(F)F)cc2)c(NC2CCCCCC2)n1" for me?
### Response 0.0

====

Test system: PC-3 prostate
Test: NCI tumour cell line growth inhibition, 48 h
Listed here are compounds together with their documented TGI.
Give just the numeric value; µM need not be written.

[
  {
    "compound": "O=C(CNc1ccc([N+](=O)[O-])cc1)Nn1c(-c2ccccc2)nc2ccccc2c1=O",
    "scaleUnit": "µM",
    "TGI": 13.2
  },
  {
    "compound": "COc1ccc(C[C@@H]2OC3(C=CC(=O)CC3Sc3ccccc3)O[C@H]2Cc2ccc(OC)cc2)cc1 (stereo not given in full)",
    "scaleUnit": "µM",
    "TGI": 3.95
  },
  {
    "compound": "NN/C(=N\\S(=O)(=O)c1cc(S(=O)(=O)c2ccccc2)cs1)Nc1ccc(Cl)cc1",
    "scaleUnit": "µM",
    "TGI": 69.7
  },
  {
    "compound": "C=C(C)C1Cc2c(cc3c(c2O)c(=O)c2ccccc2n3C)O1 (stereo not given)",
    "scaleUnit": "µM",
    "TGI": 19.3
  },
  {
    "compound": "C=C(Cl)[C@](Cl)(CBr)CC[C@@H](Br)C(C)(C)Cl",
    "scaleUnit": "µM",
    "TGI": 1.18
  }
]

Query "Cc1cc(NS(=O)(=O)c2ccc(-c3cnc(C4CC4)o3)cc2)ccc1Cl" yields TGI of 15.3

For reference, reported TGI for "COC(=O)c1cc(C#N)[nH]c1-c1ccc(Br)s1" stands at 13.4

# TGI of CC(=O)O[C@H]1[C@@H](OC2CCCC2(c2ccccc2)c2ccccc2)O[N+]([O-])=C[C@@H]1c1ccccc1 (stereo not given in full) = 21.2

For this compound ( "CC(=O)OC/C=C\Cn1ncc(=O)[nH]c1=O" ), measured TGI is 36

For this compound ( CC(NC1=NCCO1)c1ccsc1 (stereo not given) ), measured TGI is 57.8

Query "CCN(CC)Cc1cc(Nc2ccnc3ccc(OC)cc23)ccc1O" yields TGI of 31.6

Per the record, "O=C(Oc1ccc(C(c2c(O)c3ccccc3oc2=O)c2c(O)c3ccccc3oc2=O)cc1)c1ccc(C(=O)c2ccccc2)cc1" has TGI of 35.8
